endpoint: IC50 (µM)
Field format: number, assumed µM, no unit text.

**Query** Value wanted: IC50 (Acetylcholinesterase (Rattus norvegicus)) of entry `COc1cc(/C=C/C(=O)N2CCC(Cc3ccccc3)CC2)ccc1OCCCCCCN1CCc2ccccc2C1`
**Result** 21.5

**Query** Value wanted: IC50 (Acetylcholinesterase (Rattus norvegicus)) of entry `COc1cc(/C=C/C(=O)N2CCC(Cc3ccccc3)CC2)ccc1OCCCN1CCc2ccccc2C1`
**Result** 1.89

**Query** Value wanted: IC50 (Acetylcholinesterase (Rattus norvegicus)) of entry `COc1cc(/C=C/C(=O)N2CCC(Cc3ccccc3)CC2)ccc1OCCCN1CCN(c2ncccn2)CC1`
**Result** 93.5

**Query** Value wanted: IC50 (Acetylcholinesterase (Rattus norvegicus)) of entry `COc1cc(/C=C/C(=O)N2CCC(Cc3ccccc3)CC2)ccc1OCCCCN1CCN(c2ncccn2)CC1`
**Result** 44.3

**Query** Value wanted: IC50 (Acetylcholinesterase (Rattus norvegicus)) of entry `COc1cc(/C=C/C(=O)N2CCC(Cc3ccccc3)CC2)ccc1OCCCCCCN1CCN(Cc2ccccc2)CC1`
**Result** 73.2

**Query** Value wanted: IC50 (Acetylcholinesterase (Rattus norvegicus)) of entry `COc1cc(/C=C/C(=O)N2CCC(Cc3ccccc3)CC2)ccc1OCCCCCN1CCN(c2ncccn2)CC1`
**Result** 30.6

====

experiment: Permeability of the compound in PBS/EtOH at 100 ug/ml after 18 hrs by PAMPA-BBB assay
endpoint: Papp at 18 h, 100 ug/ml (×10⁻⁶ cm/s)
Field format: number, assumed ×10⁻⁶ cm/s, no unit text.

**Query** Given the entry `COc1cc(/C=C/C(=O)N2CCC(Cc3ccccc3)CC2)ccc1OCCCCN1CCc2ccccc2C1` , report its measured Papp at 18 h, 100 ug/ml.
**Result** 18.4

====

biological target: Amyloid-beta precursor protein (Homo sapiens) (UniProt P05067); test: Inhibition of amyloid beta (1 to 42) (unknown origin) self-aggregation at 25 uM after 24 hrs by thioflavin-T fluorescence assay relative to control
Sequence (P05067 whole entry): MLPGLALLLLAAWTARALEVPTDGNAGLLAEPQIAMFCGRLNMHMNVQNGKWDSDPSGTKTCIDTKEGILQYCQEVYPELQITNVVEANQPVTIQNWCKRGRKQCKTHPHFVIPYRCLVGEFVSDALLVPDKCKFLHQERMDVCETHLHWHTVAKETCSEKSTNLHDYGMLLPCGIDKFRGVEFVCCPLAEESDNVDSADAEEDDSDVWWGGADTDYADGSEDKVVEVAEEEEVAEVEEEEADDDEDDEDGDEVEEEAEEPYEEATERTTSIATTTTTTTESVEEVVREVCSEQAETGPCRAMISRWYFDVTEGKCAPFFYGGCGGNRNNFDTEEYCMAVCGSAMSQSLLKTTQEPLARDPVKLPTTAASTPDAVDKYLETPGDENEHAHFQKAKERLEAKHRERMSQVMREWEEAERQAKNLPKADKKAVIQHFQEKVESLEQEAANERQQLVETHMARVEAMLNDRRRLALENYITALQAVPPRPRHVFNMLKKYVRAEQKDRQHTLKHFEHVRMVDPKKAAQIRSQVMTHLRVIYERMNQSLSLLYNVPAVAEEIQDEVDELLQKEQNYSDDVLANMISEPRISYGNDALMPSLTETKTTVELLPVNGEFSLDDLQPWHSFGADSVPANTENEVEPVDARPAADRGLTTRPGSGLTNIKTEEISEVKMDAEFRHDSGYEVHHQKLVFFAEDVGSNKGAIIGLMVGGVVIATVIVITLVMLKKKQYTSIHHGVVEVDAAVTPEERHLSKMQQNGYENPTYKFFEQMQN
Lab note: compare inhibition against 50%. Equal or greater, write true (1). Smaller, write false (0).

**Query** Record `COc1cc(/C=C/C(=O)N2CCC(Cc3ccccc3)CC2)ccc1OCCCCN1CCN(c2ncccn2)CC1` ; criterion: inhibition no lower than 50%. Met?
**Result** false (0)

**Query** Record `COc1cc(/C=C/C(=O)N2CCC(Cc3ccccc3)CC2)ccc1OCCCN1CCN(c2ncccn2)CC1` ; criterion: inhibition no lower than 50%. Met?
**Result** false (0)

**Query** Record `COc1cc(/C=C/C(=O)N2CCC(Cc3ccccc3)CC2)ccc1OCCCCCCN1CCc2ccccc2C1` ; criterion: inhibition no lower than 50%. Met?
**Result** true (1)

**Query** Record `COc1cc(/C=C/C(=O)N2CCC(Cc3ccccc3)CC2)ccc1OCCCCCCN1CCN(c2ncccn2)CC1` ; criterion: inhibition no lower than 50%. Met?
**Result** false (0)

**Query** Record `COc1cc(/C=C/C(=O)N2CCC(Cc3ccccc3)CC2)ccc1OCCCCCN1CCN(Cc2ccccc2)CC1` ; criterion: inhibition no lower than 50%. Met?
**Result** true (1)

**Query** Record `COc1cc(/C=C/C(=O)N2CCC(Cc3ccccc3)CC2)ccc1OCCCN1CCN(c2ccccn2)CC1` ; criterion: inhibition no lower than 50%. Met?
**Result** false (0)

**Query** Record `COc1cc(/C=C/C(=O)N2CCC(Cc3ccccc3)CC2)ccc1OCCCN1CCc2ccccc2C1` ; criterion: inhibition no lower than 50%. Met?
**Result** true (1)

**Query** Record `COc1cc(/C=C/C(=O)N2CCC(Cc3ccccc3)CC2)ccc1OCCCCN1CCN(Cc2ccccc2)CC1` ; criterion: inhibition no lower than 50%. Met?
**Result** true (1)

**Query** Record `COc1cc(/C=C/C(=O)N2CCC(Cc3ccccc3)CC2)ccc1O` ; criterion: inhibition no lower than 50%. Met?
**Result** true (1)

**Query** Record `COc1cc(/C=C/C(=O)N2CCC(Cc3ccccc3)CC2)ccc1OCCCCCN1CCN(c2ncccn2)CC1` ; criterion: inhibition no lower than 50%. Met?
**Result** false (0)

====

biological target: UniProtKB P81908; test: Inhibition of equine serum BuChE using butyrylthiocholine chloride as substrate measured after 15 mins by Ellman's method
Sequence (P81908 whole entry): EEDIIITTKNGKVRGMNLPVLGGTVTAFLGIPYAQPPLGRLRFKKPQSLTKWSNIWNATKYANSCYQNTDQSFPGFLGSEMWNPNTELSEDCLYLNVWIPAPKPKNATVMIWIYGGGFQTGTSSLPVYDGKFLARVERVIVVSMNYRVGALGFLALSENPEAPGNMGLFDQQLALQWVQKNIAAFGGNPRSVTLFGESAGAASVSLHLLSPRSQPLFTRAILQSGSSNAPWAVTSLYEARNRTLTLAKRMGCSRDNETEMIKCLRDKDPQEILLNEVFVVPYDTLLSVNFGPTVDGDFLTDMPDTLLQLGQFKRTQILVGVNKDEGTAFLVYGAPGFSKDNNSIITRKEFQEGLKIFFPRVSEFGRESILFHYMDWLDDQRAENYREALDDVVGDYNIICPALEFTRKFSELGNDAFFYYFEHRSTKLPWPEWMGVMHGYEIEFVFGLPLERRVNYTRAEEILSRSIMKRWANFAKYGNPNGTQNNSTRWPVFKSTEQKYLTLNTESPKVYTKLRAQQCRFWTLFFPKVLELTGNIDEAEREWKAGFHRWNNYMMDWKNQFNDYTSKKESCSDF
endpoint: IC50 (µM)
Field format: number, assumed µM, no unit text.

**Query** Value wanted: IC50 (UniProtKB P81908) of entry `COc1cc(/C=C/C(=O)N2CCC(Cc3ccccc3)CC2)ccc1OCCCCCCN1CCc2ccccc2C1`
**Result** 0.88

**Query** Value wanted: IC50 (UniProtKB P81908) of entry `COc1cc(/C=C/C(=O)N2CCC(Cc3ccccc3)CC2)ccc1OCCCCCN1CCc2ccccc2C1`
**Result** 0.31

**Query** Value wanted: IC50 (UniProtKB P81908) of entry `COc1cc(/C=C/C(=O)N2CCC(Cc3ccccc3)CC2)ccc1OCCCCN1CCN(c2ncccn2)CC1`
**Result** 1.56

**Query** Value wanted: IC50 (UniProtKB P81908) of entry `COc1cc(/C=C/C(=O)N2CCC(Cc3ccccc3)CC2)ccc1OCCCCCN1CCN(Cc2ccccc2)CC1`
**Result** 2.23

**Query** Value wanted: IC50 (UniProtKB P81908) of entry `COc1cc(/C=C/C(=O)N2CCC(Cc3ccccc3)CC2)ccc1OCCCCN1CCc2ccccc2C1`
**Result** 0.021

**Query** Value wanted: IC50 (UniProtKB P81908) of entry `COc1cc(/C=C/C(=O)N2CCC(Cc3ccccc3)CC2)ccc1OCCCCN1CCN(Cc2ccccc2)CC1`
**Result** 0.39

**Query** Value wanted: IC50 (UniProtKB P81908) of entry `COc1cc(/C=C/C(=O)N2CCC(Cc3ccccc3)CC2)ccc1OCCCCCN1CCN(c2ncccn2)CC1`
**Result** 2.34

**Query** Value wanted: IC50 (UniProtKB P81908) of entry `COc1cc(/C=C/C(=O)N2CCC(Cc3ccccc3)CC2)ccc1OCCCN1CCN(c2ccccn2)CC1`
**Result** 0.86

====

experiment: Selectivity index, ratio of IC50 for electric eel AChE to IC50 for equine serum BuChE
endpoint: Ratio IC50
Reply with the value as a number alone.

**Query** Given the entry `COc1cc(/C=C/C(=O)N2CCC(Cc3ccccc3)CC2)ccc1OCCCCN1CCN(Cc2ccccc2)CC1` , report its measured Ratio IC50.
**Result** 6.5

**Query** Given the entry `COc1cc(/C=C/C(=O)N2CCC(Cc3ccccc3)CC2)ccc1OCCCCN1CCN(c2ccccn2)CC1` , report its measured Ratio IC50.
**Result** 6.9

**Query** Given the entry `COc1cc(/C=C/C(=O)N2CCC(Cc3ccccc3)CC2)ccc1OCCCN1CCN(c2ncccn2)CC1` , report its measured Ratio IC50.
**Result** 2.5

**Query** Given the entry `COc1cc(/C=C/C(=O)N2CCC(Cc3ccccc3)CC2)ccc1OCCCCCN1CCc2ccccc2C1` , report its measured Ratio IC50.
**Result** 14

**Query** Given the entry `COc1cc(/C=C/C(=O)N2CCC(Cc3ccccc3)CC2)ccc1OCCCCCN1CCN(Cc2ccccc2)CC1` , report its measured Ratio IC50.
**Result** 1.2

**Query** Given the entry `COc1cc(/C=C/C(=O)N2CCC(Cc3ccccc3)CC2)ccc1OCCCCCCN1CCN(c2ncccn2)CC1` , report its measured Ratio IC50.
**Result** 19.7

**Query** Given the entry `COc1cc(/C=C/C(=O)N2CCC(Cc3ccccc3)CC2)ccc1OCCCCCCN1CCN(c2ccccn2)CC1` , report its measured Ratio IC50.
**Result** 16.4

**Query** Given the entry `COc1cc(/C=C/C(=O)N2CCC(Cc3ccccc3)CC2)ccc1OCCCCCN1CCN(c2ccccn2)CC1` , report its measured Ratio IC50.
**Result** 6

**Query** Given the entry `COc1cc(/C=C/C(=O)N2CCC(Cc3ccccc3)CC2)ccc1OCCCCCCN1CCN(Cc2ccccc2)CC1` , report its measured Ratio IC50.
**Result** 2.2

**Query** Given the entry `COc1cc(/C=C/C(=O)N2CCC(Cc3ccccc3)CC2)ccc1OCCCCN1CCc2ccccc2C1` , report its measured Ratio IC50.
**Result** 101

**Query** Given the entry `COc1cc(/C=C/C(=O)N2CCC(Cc3ccccc3)CC2)ccc1OCCCN1CCc2ccccc2C1` , report its measured Ratio IC50.
**Result** 18.4

**Query** Given the entry `COc1cc(/C=C/C(=O)N2CCC(Cc3ccccc3)CC2)ccc1OCCCCCN1CCN(c2ncccn2)CC1` , report its measured Ratio IC50.
**Result** 2.5

**Query** Given the entry `COc1cc(/C=C/C(=O)N2CCC(Cc3ccccc3)CC2)ccc1OCCCCN1CCN(c2ncccn2)CC1` , report its measured Ratio IC50.
**Result** 7.9

**Query** Given the entry `COc1cc(/C=C/C(=O)N2CCC(Cc3ccccc3)CC2)ccc1OCCCCCCN1CCc2ccccc2C1` , report its measured Ratio IC50.
**Result** 10.6

**Query** Given the entry `COc1cc(/C=C/C(=O)N2CCC(Cc3ccccc3)CC2)ccc1OCCCN1CCN(Cc2ccccc2)CC1` , report its measured Ratio IC50.
**Result** 6.9

**Query** Given the entry `COc1cc(/C=C/C(=O)N2CCC(Cc3ccccc3)CC2)ccc1OCCCN1CCN(c2ccccn2)CC1` , report its measured Ratio IC50.
**Result** 12.1
